- tested-target: UniProt P43115
- Sequence (P43115 whole entry): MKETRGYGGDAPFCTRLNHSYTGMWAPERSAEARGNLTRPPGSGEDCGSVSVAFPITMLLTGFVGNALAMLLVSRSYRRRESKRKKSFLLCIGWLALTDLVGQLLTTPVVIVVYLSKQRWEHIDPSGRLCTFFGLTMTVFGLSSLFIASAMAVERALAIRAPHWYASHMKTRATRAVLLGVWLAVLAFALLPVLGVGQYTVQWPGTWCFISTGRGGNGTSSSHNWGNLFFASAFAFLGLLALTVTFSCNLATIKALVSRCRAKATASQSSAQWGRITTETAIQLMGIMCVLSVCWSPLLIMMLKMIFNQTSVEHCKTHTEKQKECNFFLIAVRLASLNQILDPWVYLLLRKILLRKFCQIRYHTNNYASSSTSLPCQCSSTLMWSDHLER
- assay-procedure: Cellular in vitro assay for determining EP3 receptor activity (human EP3 cell line, sulprostone-stimulated calcium luminescence)
- applied-conditions: CHO cells expressing human EP3 and mitochondrial Clytin; antagonist mode, sulprostone at EC50; read-out: EP3 CHO mtCLY ANTAG IC50
test-readout: IC50 (nM)

Some solved cases for reference:
CC(C)(O)[C@@H](NC(=O)c1nn2cc(-c3ccc4ccccc4c3)[nH]c(=O)c2c1C#N)c1ccc(F)cc1: 4
Cc1cc(-c2cn3nc(C(=O)N[C@H](CCO)c4ccc(F)cc4)c(C4CC4)c3c(=O)[nH]2)ccc1Cl: 0.28
Cc1cc(-c2cn3nc(C(=O)NC(C)c4ccccc4OC(F)F)cc3c(=O)[nH]2)ccc1C(F)(F)F (stereo not drawn): 8.15

I. COC[C@H](NC(=O)c1nn2cc(-c3ccc(Cl)c(C)c3)[nH]c(=O)c2c1C1CC1)c1ccccc1
II. COc1ccc(C(C)NC(=O)c2nn3c(C)c(-c4ccc5ccccc5c4)[nH]c(=O)c3c2C)cc1F (stereo not drawn)
QUERY: Identify the entry with the smaller IC50: I or II . Use the label to indicate which entry you chose.
RESULT: I

P. Cc1cc(-c2cn3nc(C(=O)N[C@@H](c4ccc(F)cc4)C(C)(C)O)c(C4CC4)c3c(=O)[nH]2)ccc1Cl
Q. CC[C@@H](C)NC(=O)c1cc2c(=O)[nH]c(-c3ccc(C)c(C4CC4)c3)cn2n1
QUERY: Would you mind telling me which has the lower recorded IC50 between P and Q ? Answer by quoting the chosen item's label.
RESULT: P
(P: 0.73 nM, Q: 3.67 nM)

A. Cc1cccc2ncc(-c3cn4nc(C(=O)N[C@@H](c5ccc(F)cc5)C(C)(C)O)c(C(F)(F)F)c4c(=O)[nH]3)cc12
B. COC[C@@H](NC(=O)c1nn2cc(-c3ccc4ccccc4c3)[nH]c(=O)c2c1C(F)(F)F)c1ccccc1
C. COc1ccc(C(CCO)NC(=O)c2cc3c(=O)[nH]c(-c4ccc(C(F)(F)F)c(C)c4)cn3n2)cc1 (stereo not drawn)
D. CC(C)C(NC(=O)c1nn2cc(-c3ccc4ccccc4c3)[nH]c(=O)c2c1C#N)c1ccc(F)cc1 (stereo not drawn)
QUERY: Thanks in advance: please rank these 4 entries by IC50, highest to lowest. As an answer, provide the labels arranged in the order called for.
RESULT: C, A, D, B

Recorded values, source patent US20220324865A1.
